# Tested on: Plasmodium falciparum
# ASSAY: GSK_TCMDC: Inhibition of Plasmodium falciparum 3D7 in whole red blood cells, using parasite LDH activity as an index of growth. Test compounds present at 2uM
# Type: functional
ASSAY METRIC: Inhibition (%)
Provide the reading as a plain figure in %.

Fill blank: measured Inhibition of the molecule "CCCCCCN1CCCN(Cc2ccc(C(=O)Nc3ccc(C)c(F)c3)cc2)CC1.O=C(O)C(F)(F)F" is ____.
92

Field entry: "COc1ccc(C=NNc2nc(O)cc(-c3ccccc3)n2)cc1OC"
92

Field entry: "COc1ccc(CNC(=O)c2cnc3c(O)cccc3c2Nc2cccc(NC(=O)c3ccc(Cl)c(Cl)c3)c2)cc1.O=C(O)C(F)(F)F"
96

Field entry: O=C(NC1CCN(Cc2ccccc2O)C1)c1cccc(C(F)(F)F)c1.O=C(O)C(F)(F)F (stereo not drawn)
98

Field entry: "CC(C)CNCc1cccc(-c2ccc(CN(CCCN3CCN(C)CC3)C(=O)/C=C/c3ccccc3)cc2)c1.O=C(O)C(F)(F)F"
92

Field entry: "Cc1ccc(F)cc1S(=O)(=O)Nc1ccc(CCN2CCC(N3CCCCC3)CC2)cc1"
99

Field entry: "O=C(Nc1ccc2c(c1)CCNCC2)Nc1ccc2ccccc2c1.O=C(O)C(F)(F)F"
84

Field entry: "CN1CCN(c2ccc(-c3nc4ccc(OCc5cc(Cl)cc(Cl)c5)c(C(N)=O)c4[nH]3)cc2)CC1"
100

----------
So I've got a bunch of compounds here, and I need their Inhibition values.
# Test system: HepG2
# ASSAY: GSK_TCMDC: Percent inhibition of human HepG2 cell line. Test compounds present at 10uM.
# Assay type: functional
Provide the reading as a plain figure in %.

Fill blank: measured Inhibition of the compound "COc1ccc(CNCc2ccc(-c3cccc(-c4nc5ccccc5[nH]4)c3)cc2)cc1.O=C(O)C(F)(F)F" is ____.
57

Field entry: "CN(C)Cc1ccc(-c2ccc3ccnc(N)c3c2)cc1"
20

Field entry: "COc1cc(Cc2cnc(N)nc2N)ccc1OCc1csc(-c2ccc(Cl)cc2)n1"
39

Field entry: CC1CCCN(C(=O)C(C)Nc2cc(Cl)ccc2N2CCOCC2)C1 (configuration not stated)
0

Field entry: "O=C(c1cnn(-c2ccccc2)c1C(F)(F)F)N1CCN(c2ccnc3cc(Cl)ccc23)CC1"
34

Field entry: "Cl.Fc1cccc(COc2ccc(Nc3ncnc4sc(C#C[C@H]5CCCN5)cc34)cc2F)c1"
13

Field entry: "COc1ccc(CNCc2ccsc2)cc1-c1ccc(S(=O)(=O)NCCN2CCCC2)c(C)c1.O=C(O)C(F)(F)F"
49

Field entry: "CC(C)NCc1ccc(-c2cccc(-c3nc4ccccc4[nH]3)c2)cc1.O=C(O)C(F)(F)F"
21

Field entry: "Cc1sc2ncnc(Sc3nc4ccccc4[nH]3)c2c1C"
14

Field entry: "CN1CCN(CCCN(Cc2csc(-c3ccc(CNCc4ccccc4)cc3)n2)C(=O)Nc2cccc(Cl)c2)CC1.O=C(O)C(F)(F)F"
32

Field entry: CCCC(C)NC(=O)[C@H](Cc1ccccc1)NC(=O)c1ccc(O)c(-c2ccc(OC)cc2)c1 (some centres not stated)
12

Field entry: "CCN1CCN(c2cc(C)c3cc(NC(=O)c4cccc(OC)c4)ccc3n2)CC1"
5

Field entry: O=c1cc(NCCCNC2CCCc3c2cc(Cl)c(Cl)c3Cl)[nH]c2ccccc12 (configuration not stated)
6

Field entry: "COC(=O)c1ccc2c(-c3nc4ccc(OC)cc4[nH]3)c[nH]c2c1"
0

Field entry: "COc1ccccc1CCN1CCC(CN(C)Cc2ccc(O)c(Cl)c2)CC1"
19

Field entry: "CCCNCc1ccc(-c2ccc(CN(CCOC)C(=O)Cc3cccnc3)cc2)nc1.O=C(O)C(F)(F)F"
10

Field entry: "Cc1noc(C)c1CN1Cc2ccccc2OC2(CCN(Cc3c[nH]c4cnccc34)CC2)C1.O=C(O)C(F)(F)F"
19

Field entry: O=S(=O)(Nc1cccc(CCN2CCCCC2CCN2CCCC2)c1)c1ccc(Oc2ccccc2)cc1 (configuration not stated)
52

Field entry: "Cl.N=C(N)NN=C1C=Cc2cccc3cccc1c23"
9

Field entry: "Cc1cccc2nc(-c3cccc(-c4ccc(NC(=O)COC(C)C)cc4)c3)[nH]c12"
0

Field entry: CN(C)c1ccc(C2(c3ccccc3)N=C(N)N(CCCc3ccccc3)C2=O)cc1.O=C(O)C(F)(F)F (configuration not stated)
4

Field entry: "CSc1ccc(C=CC(=O)NC(=O)c2ccccc2O)cc1"
2

Field entry: "O=C(NCc1cccc(C(F)(F)F)c1)c1ccc(-c2nc3cc(F)c(F)cc3[nH]2)cc1"
0

Field entry: "CC(C)NCc1ccc(-c2cccc(-c3nc4cc(F)ccc4[nH]3)c2)cc1.O=C(O)C(F)(F)F"
14

Field entry: Cc1cccc2nc(-c3ccc(-c4cccc(CNCC5CCCO5)c4)s3)[nH]c12.O=C(O)C(F)(F)F (configuration not stated)
26

Field entry: "COc1ccc2nccc([C@@H](O)CN3CCC(NC(=O)c4ccc5nc(-n6cccc6)sc5c4)CC3)c2c1"
26

Field entry: "CCOCc1cnc(C)nc1NCC(=O)c1c(C)[nH]c2cc(C)ccc12.I"
8
